Data provenance is patent US6875743B1.

Biological target: T1, α4β1 integrin, very late antigen-4 (VLA-4) (UniProt P13612 34-1032; P05556 21-798, limits assumed)
T1 construct: whole, on cells; also called CD49d/CD29
T1 sequence (P13612 34-1032 limits assumed, chain 1 of 2): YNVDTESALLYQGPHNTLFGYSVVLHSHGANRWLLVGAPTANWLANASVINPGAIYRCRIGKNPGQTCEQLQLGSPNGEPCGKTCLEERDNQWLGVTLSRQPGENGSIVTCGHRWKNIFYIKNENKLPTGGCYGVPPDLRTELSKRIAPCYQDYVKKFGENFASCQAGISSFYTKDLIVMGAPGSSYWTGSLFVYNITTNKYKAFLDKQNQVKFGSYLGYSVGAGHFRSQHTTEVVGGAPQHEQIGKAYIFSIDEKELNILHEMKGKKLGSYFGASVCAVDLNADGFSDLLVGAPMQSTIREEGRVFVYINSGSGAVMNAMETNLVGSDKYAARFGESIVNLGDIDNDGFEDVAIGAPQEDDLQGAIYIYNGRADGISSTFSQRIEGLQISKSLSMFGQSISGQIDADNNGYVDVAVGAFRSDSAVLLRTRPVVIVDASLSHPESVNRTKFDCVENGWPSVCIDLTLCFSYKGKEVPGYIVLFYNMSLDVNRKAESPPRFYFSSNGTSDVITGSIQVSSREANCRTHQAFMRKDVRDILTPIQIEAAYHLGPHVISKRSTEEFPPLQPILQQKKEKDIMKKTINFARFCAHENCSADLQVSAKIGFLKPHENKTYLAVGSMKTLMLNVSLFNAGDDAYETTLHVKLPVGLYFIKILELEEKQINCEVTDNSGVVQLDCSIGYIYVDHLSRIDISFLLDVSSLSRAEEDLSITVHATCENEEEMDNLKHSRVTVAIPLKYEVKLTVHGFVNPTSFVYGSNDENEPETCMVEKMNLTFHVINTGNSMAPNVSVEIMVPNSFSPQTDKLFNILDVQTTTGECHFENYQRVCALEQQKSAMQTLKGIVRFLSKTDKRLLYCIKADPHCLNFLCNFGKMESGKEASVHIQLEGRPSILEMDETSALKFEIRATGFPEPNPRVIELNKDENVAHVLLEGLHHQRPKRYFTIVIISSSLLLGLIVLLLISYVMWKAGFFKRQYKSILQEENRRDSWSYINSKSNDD
T1 sequence (P05556 21-798 limits assumed, chain 2 of 2): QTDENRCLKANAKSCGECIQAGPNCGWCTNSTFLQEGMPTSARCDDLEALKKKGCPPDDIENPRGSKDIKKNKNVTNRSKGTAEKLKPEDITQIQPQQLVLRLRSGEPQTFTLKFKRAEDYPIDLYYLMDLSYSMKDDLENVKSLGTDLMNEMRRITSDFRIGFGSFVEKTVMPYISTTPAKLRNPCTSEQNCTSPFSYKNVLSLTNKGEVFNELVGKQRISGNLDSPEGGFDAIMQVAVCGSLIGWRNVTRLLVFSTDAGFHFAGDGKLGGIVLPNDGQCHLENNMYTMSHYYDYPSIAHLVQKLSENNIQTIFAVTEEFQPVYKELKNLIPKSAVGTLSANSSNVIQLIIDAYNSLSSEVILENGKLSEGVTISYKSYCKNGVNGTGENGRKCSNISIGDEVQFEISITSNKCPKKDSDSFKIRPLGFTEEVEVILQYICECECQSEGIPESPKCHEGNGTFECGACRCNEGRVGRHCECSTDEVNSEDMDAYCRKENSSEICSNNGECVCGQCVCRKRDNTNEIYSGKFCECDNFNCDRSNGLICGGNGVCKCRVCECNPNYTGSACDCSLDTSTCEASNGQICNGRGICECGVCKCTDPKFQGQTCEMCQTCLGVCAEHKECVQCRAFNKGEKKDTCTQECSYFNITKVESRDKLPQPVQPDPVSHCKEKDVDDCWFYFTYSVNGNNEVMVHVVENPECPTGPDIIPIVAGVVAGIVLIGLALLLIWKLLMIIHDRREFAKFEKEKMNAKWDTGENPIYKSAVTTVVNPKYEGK
Test: inhibition of Ramos cell adhesion to BSA-CS1
Procedure: Following labelling, the cells were washed twice in assay buffer (24 mM TRIS, 137 mM NaCl, 2.7 mM KCl, pH 7.4, containing 0.1% BSA and 2 mM glucose) to remove any cations originating from the culture medium. The cells were then resuspended in assay buffer to 4×10⁶ cells/mL and 2 mM MnCl_2 was added to upregulate VLA4 on the surface of the cells. […] Percent binding is calculated by the formula: […]
* marks the point of attachment. 2‑MPUPA = 4-(N′-(2-methylphenyl)urea)phenylacetyl, Cc1ccccc1NC(=O)Nc1ccc(CC(=O)*)cc1; Quinaldoyl = O=C(c1ccc2ccccc2n1)*
Please provide measured IC50 for the entries that follow.

Please give measured IC50 of the following entry: Quinaldoyl-LDVM-OH (SMILES CSCC[C@H](NC(=O)[C@@H](NC(=O)[C@H](CC(=O)O)NC(=O)[C@H](CC(C)C)NC(=O)c1ccc2ccccc2n1)C(C)C)C(=O)O) [Compound 186]
> 10 µM

Please give measured IC50 of the following entry: {2‑MPUPA}-LDVPST-OH (SMILES Cc1ccccc1NC(=O)Nc1ccc(CC(=O)N[C@@H](CC(C)C)C(=O)N[C@@H](CC(=O)O)C(=O)N[C@H](C(=O)N2CCC[C@H]2C(=O)N[C@@H](CO)C(=O)N[C@H](C(=O)O)[C@@H](C)O)C(C)C)cc1) [Compound 338]
< 0.05 µM

Please give measured IC50 of the following entry: {4‑(N'-2-hydroxyphenylurea)phenylacetyl}-MDVP-OH [Compound 146]
< 0.05 µM

Please give measured IC50 of the following entry: {3‑methoxy‑4‑(N'-phenylurea)phenylacetyl}-MDVP-OH [Compound 2]
< 0.05 µM
